- Test system: Chloroform-Induced Arrhythmia
- Procedure details: Activity on chloroform-induced arrhythmia
- Assay type: in vivo, ICR-strain mice
- Test context: 100 mg/kg orally, 10 mice per group; ventricular fibrillation after chloroform vapor
Below, each entry is listed with its recorded Antiarrhythmic activity: Rate of onset of VF.

INSERT INTO assay_data (molecule, result) VALUES
  ('Cc1cc(OCC(F)(F)F)cc(C)c1NC(=O)C(C)N (stereo not drawn)', '1/10');

Lab note: molecule COc1ccc(OCC(F)(F)F)cc1NC(=O)CC(C)N (stereo not drawn) tested on Chloroform-Induced Arrhythmia; recorded Antiarrhythmic activity: Rate of onset of VF was 0/10

Chloroform-Induced Arrhythmia data for Cc1cc(OCCO[N+](=O)[O-])cc(C)c1NC(=O)C(C)N (stereo not drawn) ; its Antiarrhythmic activity: Rate of onset of VF: 0/10

Reading of Antiarrhythmic activity: Rate of onset of VF for Cc1ccc(OCCO[N+](=O)[O-])cc1NC(=O)CC(C)N (stereo not drawn) with Chloroform-Induced Arrhythmia: 0/10

# CCN(CC)CC(=O)Nc1c(C)cccc1C [Lidocaine, reference compound] with Chloroform-Induced Arrhythmia: Antiarrhythmic activity: Rate of onset of VF is 2/10

# Cc1ccc(OCC(F)(F)F)cc1NC(=O)CC(C)N (stereo not drawn) with Chloroform-Induced Arrhythmia: Antiarrhythmic activity: Rate of onset of VF is 0/10

// returns Antiarrhythmic activity: Rate of onset of VF for CC(N)C(=O)Nc1cc(OCCO[N+](=O)[O-])ccc1F (stereo not drawn) with Chloroform-Induced Arrhythmia; value = 0/10

Here COc1ccc(OCCO[N+](=O)[O-])cc1OCC(C)N (stereo not drawn) was tested on Chloroform-Induced Arrhythmia, and its Antiarrhythmic activity: Rate of onset of VF came to 0/10

Record Cc1ccc(OCC(F)(F)F)cc1NC(=O)C(C)N (stereo not drawn) ; system Chloroform-Induced Arrhythmia; Antiarrhythmic activity: Rate of onset of VF = 2/10

----------
- Test system: Chloroform-Induced Arrhythmia
- Procedure details: Activity on chloroform-induced arrhythmia
- Type: in vivo, ICR-strain mice
- Test context: 100 mg/kg orally, 10 mice per group; ventricular tachycardia after chloroform vapor
In this section, each of the compounds is paired with its reported Antiarrhythmic activity: Rate of onset of VT.

Use these answered entries as a reference point.
INSERT INTO measurements (compound, result) VALUES
  ('CC(N)C(=O)Nc1cc(OCCO[N+](=O)[O-])ccc1F (stereo not drawn)', '2/10'),
  ('COc1ccc(OCC(F)(F)F)cc1NC(=O)CC(C)N (stereo not drawn)', '2/10'),
  ('Cc1ccc(OCC(F)(F)F)cc1NC(=O)C(C)N (stereo not drawn)', '5/10'),
  ('Cc1cc(OCCO[N+](=O)[O-])cc(C)c1NC(=O)C(C)N (stereo not drawn)', '1/10'),
  ('CCN(CC)CC(=O)Nc1c(C)cccc1C [Lidocaine, reference compound]', '0/10');

Lab entry: Chloroform-Induced Arrhythmia assay, compound Cc1cc(OCC(F)(F)F)cc(C)c1NC(=O)C(C)N (stereo not drawn) , Antiarrhythmic activity: Rate of onset of VT = 0/10

Chloroform-Induced Arrhythmia data for Cc1ccc(OCC(F)(F)F)cc1NC(=O)CC(C)N (stereo not drawn) ; its Antiarrhythmic activity: Rate of onset of VT: 0/10

Case Cc1ccc(OCCO[N+](=O)[O-])cc1NC(=O)CC(C)N (stereo not drawn) , Chloroform-Induced Arrhythmia, Antiarrhythmic activity: Rate of onset of VT recorded as 0/10

Form: item COc1ccc(OCCO[N+](=O)[O-])cc1OCC(C)N (stereo not drawn) ; test system Chloroform-Induced Arrhythmia; Antiarrhythmic activity: Rate of onset of VT: 4/10
